Collected literature values of Ki measured for Bcl-2-like protein 1 (Homo sapiens).

input: Please report the measured Ki for COC(=O)c1c(C)oc2c1c(C(c1ccncc1)N1CCN(C)CC1)c(O)c1ccccc12 (stereo not drawn) tested on Bcl-2-like protein 1 (Homo sapiens).
output: > 30 µM

input: Give Ki only, for C[C@@H]1[C@@H](NC(=O)[C@@H]2[C@H]([C@H](C)O)[C@H](CO)ON2Cc2cccc(-c3cc(C(=O)N[C@@H](Cc4ccccc4)CN(C)C)cc(N(C)C)c3)c2OCCN2CCOCC2)C[C@H]2C[C@@H]1C2(C)C , using Bcl-2-like protein 1 (Homo sapiens) data.
output: < 1 µM

input: Provide Ki, recorded with Bcl-2-like protein 1 (Homo sapiens), of CNC(=O)c1cc(-c2cccc(CN3O[C@@H](CNC(C)C)[C@@H]([C@H](C)O)[C@H]3C(=O)N[C@H]3C[C@H]4C[C@@H]([C@@H]3C)C4(C)C)c2OC)cc(N(C)C)c1
output: > 10 µM

input: Please respond with reported Ki (system Bcl-2-like protein 1 (Homo sapiens)) for COc1c(CN2O[C@@H](CN)[C@@H]([C@H](C)O)[C@H]2C(=O)N[C@H]2C[C@H]3C[C@@H]([C@@H]2C)C3(C)C)cccc1-c1cc(C(=O)N[C@@H]2CCN(C)C2)cc(N(C)C)c1 .
output: > 10 µM

input: Consider the compound CNC(=O)c1cc(-c2cccc(CN3O[C@@H](CNCc4cccc(C(=O)O)c4)[C@@H]([C@H](C)O)[C@H]3C(=O)N[C@H]3C[C@H]4C[C@@H]([C@@H]3C)C4(C)C)c2OC)cc(N(C)C)c1 tested on Bcl-2-like protein 1 (Homo sapiens); state its Ki.
output: > 10 µM

input: Please report Ki with Bcl-2-like protein 1 (Homo sapiens) for item COc1c(CN2O[C@@H](CN)[C@@H]([C@H](C)O)[C@H]2C(=O)N[C@H]2C[C@H]3C[C@@H]([C@@H]2C)C3(C)C)cccc1-c1cc(C(=O)N(C)C)cc(N(C)C)c1 .
output: > 10 µM

input: Quote Bcl-2-like protein 1 (Homo sapiens) Ki for entry CC1(C)CCC(CN2CCN(c3ccc(C(=O)NS(=O)(=O)c4ccc(OCC5(F)CCN(C6COC6)CC5)c(Cl)c4)c(Oc4cnc5[nH]ccc5c4)c3)CC2)=C(c2ccc(Cl)cc2)C1 .
output: 0.012 µM

input: Provide Ki, recorded with Bcl-2-like protein 1 (Homo sapiens), of COc1c(CN2O[C@@H](CN)[C@@H]([C@H](C)O)[C@H]2C(=O)N[C@H]2C[C@H]3C[C@@H]([C@@H]2C)C3(C)C)cccc1-c1cc(C(=O)N[C@@H](Cc2ccccn2)CN(C)C)cc(N(C)C)c1
output: 1 to 5 µM

input: Lab note: record Ki of COc1c(CN2O[C@@H](CO)[C@@H]([C@H](C)O)[C@H]2C(=O)N[C@H]2C[C@H]3C[C@@H]([C@@H]2C)C3(C)C)cccc1-c1cc(C(=O)N[C@@H](Cc2ccccc2)CN(C)C)cc([N+](=O)[O-])c1 tested on Bcl-2-like protein 1 (Homo sapiens).
output: < 1 µM

input: Give Ki; test system Bcl-2-like protein 1 (Homo sapiens); compound CCOc1c(CN2O[C@@H](CO)[C@@H]([C@H](C)O)[C@H]2C(=O)N[C@H]2C[C@H]3C[C@@H]([C@@H]2C)C3(C)C)cccc1-c1cc(C(=O)N[C@@H](Cc2ccccc2)CN(C)C)cc(N(C)C)c1
output: < 1 µM

input: Write down measured Ki (Bcl-2-like protein 1 (Homo sapiens)) for this compound. COc1c(CN2O[C@@H](CO)[C@@H]([C@H](C)O)[C@H]2C(=O)N[C@H]2C[C@H]3C[C@@H]([C@@H]2C)C3(C)C)cccc1-c1cc(C(=O)N[C@H](Cc2ccccc2)CN(C)C)cc(N(C)C)c1
output: < 1 µM

input: Give reported Ki for CC1(C)CCC(CN2CCN(c3ccc(C(=O)NS(=O)(=O)c4cnc(OCC5(F)CCOCC5)c(Cl)c4)c(Oc4cccc5[nH]ncc45)c3)CC2)=C(c2ccc(Cl)cc2)C1 (Bcl-2-like protein 1 (Homo sapiens))
output: 0.023 µM

input: Lab note: Bcl-2-like protein 1 (Homo sapiens) assay, enter Ki for COc1c(CN2O[C@@H](CO)[C@@H]([C@H](C)O)[C@H]2C(=O)N[C@H]2C[C@H]3C[C@@H]([C@@H]2C)C3(C)C)cccc1-c1cc(C(=O)NCCc2ccccc2)cc(N(C)C)c1 here
output: < 1 µM

input: Fill in Ki for COc1c(CN2O[C@@H](CO)[C@@H]([C@H](C)O)[C@H]2C(=O)N[C@H]2C[C@H]3C[C@@H]([C@@H]2C)C3(C)C)cccc1-c1cc(C(=O)N(C)[C@@H](Cc2ccccc2)CN(C)C)cc(N(C)C)c1 tested with Bcl-2-like protein 1 (Homo sapiens).
output: < 1 µM

input: Given CO[C@@H](c1ccccc1-c1ccc(Cl)cc1)C1CCN(c2ccc(C(=O)NS(=O)(=O)c3ccc(N[C@@H](CSc4ccccc4)C[C@H]4CCCN4)c(S(=O)(=O)C(F)(F)F)c3)cc2)CC1 , report its Ki on Bcl-2-like protein 1 (Homo sapiens).
output: 0.00017 µM

input: Report Ki under test system Bcl-2-like protein 1 (Homo sapiens) for COc1c(CN2O[C@@H](CO)[C@@H]([C@H](C)O)[C@H]2C(=O)N[C@H]2C[C@H]3C[C@@H]([C@@H]2C)C3(C)C)cccc1-c1cc(C(=O)N[C@@H](Cc2ccccc2)CN(C)C)cc(N2CCOCC2)c1 .
output: 1 to 5 µM

input: Give the observed Ki of COc1c(CN2O[C@@H](CO)[C@@H]([C@H](C)O)[C@H]2C(=O)N[C@H]2C[C@H]3C[C@@H]([C@@H]2C)C3(C)C)cccc1-c1cc(C(=O)N[C@H](Cc2ccccc2)CN2CCN(C)CC2)cc(N(C)C)c1 for Bcl-2-like protein 1 (Homo sapiens).
output: < 1 µM

input: Give Bcl-2-like protein 1 (Homo sapiens) Ki for the following compound: O=C(NS(=O)(=O)c1ccc(N[C@@H](CSc2ccccc2)C[C@@H]2CCCN2CCO)c(S(=O)(=O)C(F)(F)F)c1)c1ccc(N2CCC([C@@H](O)c3ccccc3-c3ccc(C(F)(F)F)cc3)CC2)cc1
output: 0.0003 µM
